I'd appreciate it if you could supply pKi values for the items below.
# Measurement target: D(2) dopamine receptor (Rattus norvegicus, UniProt P61169)
# Sequence (P61169 whole entry): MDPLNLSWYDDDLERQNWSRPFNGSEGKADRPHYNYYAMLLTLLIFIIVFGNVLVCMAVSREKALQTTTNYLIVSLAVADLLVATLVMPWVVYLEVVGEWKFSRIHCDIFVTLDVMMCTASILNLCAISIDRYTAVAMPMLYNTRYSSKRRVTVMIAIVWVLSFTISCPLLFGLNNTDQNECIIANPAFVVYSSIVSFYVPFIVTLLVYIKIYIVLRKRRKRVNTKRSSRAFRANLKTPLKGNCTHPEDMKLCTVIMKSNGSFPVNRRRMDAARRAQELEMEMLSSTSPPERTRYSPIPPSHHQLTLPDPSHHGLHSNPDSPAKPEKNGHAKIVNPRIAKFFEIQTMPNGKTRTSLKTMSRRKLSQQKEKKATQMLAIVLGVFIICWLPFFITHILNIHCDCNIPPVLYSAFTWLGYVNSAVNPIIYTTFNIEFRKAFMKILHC
Give bare numbers, as −log10 of the molar value.

Guide cases for pKi, answers given:
• CCCN(CCN1CCN(c2ccccc2)CC1)[C@@H]1CCc2ccc(OS(=O)(=O)c3ccc(OC)cc3)cc2C1 = 5.97
• CCCN(CCN1CCN(c2ccccc2)CC1)C1CCc2cc3cc[nH]c3cc2C1 (stereo not drawn) = 6.90
• CCCN(CCN1CCN(c2ccccc2)CC1)C1CCc2ccc(N)cc2C1 (racemic) = 6.20
• CCCN(CCN1CCN(c2ccccc2)CC1)[C@H]1CCc2ccc(N)cc2C1 = 5.57
• CCCN(CCN1CCN(c2ccccc2)CC1)C1CCc2ccc(NS(=O)(=O)c3ccc(C)cc3)cc2C1 (stereo not drawn) = 7.41
• CCCN(CCN1CCN(C(=O)c2cc3ccccc3[nH]2)CC1)C1CCc2nc(N)sc2C1 (stereo not drawn) = 5.97
• CCCN(CCN1CCN(c2ccccc2)CC1)C1CCc2ccc(NS(=O)(=O)c3ccc(Cl)cc3)cc2C1 (stereo not drawn) = 7.14

Exercise: Fill in the blank: the reported pKi of CCCN(CCN1CCN(c2ccccc2)CC1)C1CCc2ccc(NC(=O)c3ccccc3)cc2C1 (stereo not drawn) is ____.
Solution: 6.20

====

Ki tested on D(3) dopamine receptor (Rattus norvegicus, UniProt P19020): recorded values
Sequence (P19020 whole entry): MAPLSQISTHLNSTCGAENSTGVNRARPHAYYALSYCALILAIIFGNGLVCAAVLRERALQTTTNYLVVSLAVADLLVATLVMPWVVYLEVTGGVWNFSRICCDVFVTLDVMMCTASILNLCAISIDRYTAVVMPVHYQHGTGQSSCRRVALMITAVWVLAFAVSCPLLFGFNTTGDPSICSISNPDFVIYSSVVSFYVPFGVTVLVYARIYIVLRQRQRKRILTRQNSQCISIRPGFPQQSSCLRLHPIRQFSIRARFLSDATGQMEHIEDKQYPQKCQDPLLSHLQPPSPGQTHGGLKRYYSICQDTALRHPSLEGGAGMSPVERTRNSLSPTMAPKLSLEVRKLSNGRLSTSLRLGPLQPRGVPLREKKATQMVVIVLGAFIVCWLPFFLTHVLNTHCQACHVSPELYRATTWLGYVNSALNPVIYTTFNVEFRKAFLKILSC
Answers are plain numbers, in nM.

• CCCN(CCN1CCN(c2ccccc2)CC1)C1CCc2cc3cc[nH]c3cc2C1 (configuration not stated) = 10.7

List reported Ki for each of these molecules:
1. CCCN(CCN1CCN(C(=O)c2cc3ccccc3[nH]2)CC1)C1CCc2nc(N)sc2C1 (configuration not stated)
2. CCCN(CCN1CCN(c2ccccc2)CC1)C1CCc2ccc(NS(=O)(=O)c3ccc(C)cc3)cc2C1 (configuration not stated)

Solution:
1.84
3.69

// each molecule listed below needs its Ki
1. CCCN(CCN1CCN(c2ccccc2)CC1)[C@@H]1CCc2ccc(NS(=O)(=O)c3ccc(OC)cc3)cc2C1
2. CCCN(CCN1CCN(c2ccccc2OC)CC1)C1CCc2cc3[nH]c(=O)[nH]c3cc2C1 (configuration not stated)

Solution:
1: 2.32; 2: 195

Hi there! I need Ki for each item below, if you can.
1. CCCN(CCN1CCN(c2ccccc2OC)CC1)C1CCc2cc3[nH]c(=S)[nH]c3cc2C1 (configuration not stated)
2. CCCN(CCN1CCN(c2ccccc2)CC1)C1CCc2ccc(NS(=O)(=O)c3ccc(OC)cc3)cc2C1 (racemic)

Solution:
112
2.22

====

# Measurement target: D(2) dopamine receptor (Homo sapiens, UniProt P14416)
# Sequence (P14416 whole entry): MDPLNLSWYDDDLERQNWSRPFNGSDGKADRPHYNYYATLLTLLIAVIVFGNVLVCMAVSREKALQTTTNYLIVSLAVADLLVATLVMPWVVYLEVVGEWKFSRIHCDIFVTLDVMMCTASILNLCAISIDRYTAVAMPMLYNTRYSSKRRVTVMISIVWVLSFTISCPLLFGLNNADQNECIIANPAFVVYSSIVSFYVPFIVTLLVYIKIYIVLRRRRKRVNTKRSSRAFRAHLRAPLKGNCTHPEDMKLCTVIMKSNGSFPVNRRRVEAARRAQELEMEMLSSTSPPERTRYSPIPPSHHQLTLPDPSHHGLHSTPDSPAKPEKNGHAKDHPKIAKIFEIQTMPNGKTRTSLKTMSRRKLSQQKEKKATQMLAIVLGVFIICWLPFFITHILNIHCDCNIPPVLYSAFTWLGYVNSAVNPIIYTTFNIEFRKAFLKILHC
# Protocol notes: Agonist activity at human dopamine D2L receptor expressed in CHO cells assessed as stimulation of [35S]GTPgammaS binding after 60 mins by scintillation counting analysis
# Assay type: functional, cell-based
# Assay setup: read-out: EC50
Quantity measured: pEC50
Answers are plain numbers, as −log10 of the molar value.

Exercise: D(2) dopamine receptor (Homo sapiens, UniProt P14416) / pEC50 / CCCN(CCN1CCN(c2ccccc2)CC1)[C@@H]1CCc2ccc(N)cc2C1 : value?
Solution: 6.75

====

# Species on record: Rattus norvegicus
# Protocol notes: Selectivity ratio of Ki for rat cloned dopamine D2L receptor to Ki for rat cloned dopamine D3 receptor
What Ratio Ki was measured for each of the following?
Answers are plain numbers.

// known answers, use as guide
- CCCN(CCN1CCN(c2ccccc2)CC1)[C@H]1CCc2c(cccc2OS(=O)(=O)c2ccc(C)cc2)C1: 19.8
- CCCN(CCN1CCN(c2ccccc2OC)CC1)C1CCc2cc3[nH]c(=S)[nH]c3cc2C1 (stereo not given): 2.05
- CCCN(CCN1CCN(c2nccc3ccccc23)CC1)[C@H]1CCc2nc(N)sc2C1: 121

For every listed record, write down its Ratio Ki.
1. CCCN(CCN1CCN(c2ccccc2)CC1)C1CCc2cc3[nH]c(N)nc3cc2C1 (stereo not given)
2. CCCN(CCN1CCN(c2ccccc2)CC1)C1CCc2ccc(NC(C)=O)cc2C1 (stereo not given)

Solution:
1: 8.89; 2: 7.44

These entries and their values trace back to ChEMBL document CHEMBL2384946.
